molecular target: Glucose-dependent insulinotropic receptor (Mus musculus); experiment: Agonist activity at mouse GPR119 overexpressed in HEK293S cells assessed as change in cAMP level after 45 mins by HTRF assay
Sequence (Q7TQP3 whole entry): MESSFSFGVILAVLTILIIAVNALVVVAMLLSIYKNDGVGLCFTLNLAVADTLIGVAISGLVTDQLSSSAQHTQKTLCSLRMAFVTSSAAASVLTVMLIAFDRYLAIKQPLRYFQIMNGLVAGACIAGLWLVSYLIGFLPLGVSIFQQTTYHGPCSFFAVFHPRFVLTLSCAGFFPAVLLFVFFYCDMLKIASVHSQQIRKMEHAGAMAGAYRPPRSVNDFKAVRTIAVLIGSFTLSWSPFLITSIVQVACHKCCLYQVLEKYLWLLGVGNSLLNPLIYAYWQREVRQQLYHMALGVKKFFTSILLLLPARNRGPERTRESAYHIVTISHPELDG
Measured Endpoint: EC50 (nM)

Molecule | Target | Measured Endpoint | Endpoint Result
CC(C)c1nc(N2CCN(c3ncc(OCc4ccncc4C#N)cn3)CC2)no1 | Glucose-dependent insulinotropic receptor (Mus musculus) | EC50 | 242
N#Cc1cnccc1COc1cnc(N2CCN(C(=O)OCC(F)(F)F)CC2)nc1 | Glucose-dependent insulinotropic receptor (Mus musculus) | EC50 | 698
N#Cc1cnccc1COc1cnc(N2CC3CCC(C2)N3C(=O)OCC(F)(F)F)nc1 | Glucose-dependent insulinotropic receptor (Mus musculus) | EC50 | 20
CC(C)c1nc(N2C3CCC2CN(c2ncc(OCc4ccncc4C#N)cn2)C3)no1 | Glucose-dependent insulinotropic receptor (Mus musculus) | EC50 | 45
N#Cc1cnccc1COc1cnc(N2CCN(C(=O)OC3CC(F)(F)C3(F)F)CC2)nc1 (stereo unspecified) | Glucose-dependent insulinotropic receptor (Mus musculus) | EC50 | 252
C[C@@H]1CN(C(=O)OC2CC(F)(F)C2(F)F)CCN1c1ncc(OCc2ccncc2C#N)cn1 (stereo partly specified) | Glucose-dependent insulinotropic receptor (Mus musculus) | EC50 | 84
